# credit: patent US8460274B2

Can you tell me release rate normalized to surface area of the implant for the items I'm about to list?
assay: Release rates of active agents from Tecophilic, Tecoflex and Carbothane polyurethane implants (Example 6); assay type: physicochemical; conditions: Tecophilic HP-60D-20, 15% EWC
Answer format: numeric, μg/day/cm^2 implied, no suffix.

Req: // release rate normalized to surface area of the implant lookup, key: Clc1cccc(Cl)c1N=C1NCCN1 [Clonidine Base]
Resp: 1011

Req: Proceed to O=C1CC[C@@]2(O)[C@H]3Cc4ccc(O)c5c4[C@@]2(CCN3CC2CC2)[C@H]1O5 [Naltrexone Base]
Resp: 263

Req: Proceed to CCNC(=O)[C@@H]1CCCN1C(=O)[C@H](CCCNC(=N)N)NC(=O)[C@H](CC(C)C)NC(=O)[C@@H](Cc1cn(Cc2ccccc2)cn1)NC(=O)[C@H](Cc1ccc(O)cc1)NC(=O)[C@H](CO)NC(=O)[C@H](Cc1c[nH]c2ccccc12)NC(=O)[C@H](Cc1cnc[nH]1)NC(=O)[C@@H]1CCC(=O)N1 [Histrelin Acetate]
Resp: 93

---

assay: Release rates of active agents from Tecophilic, Tecoflex and Carbothane polyurethane implants (Example 6); format: physicochemical; conditions: Carbothane PC-3595A, F.M.: 4,500
Structures can show the parent of a compound that is named as a salt.
measure: release rate normalized to surface area of the implant (μg/day/cm^2)
Answer format: numeric, μg/day/cm^2 implied, no suffix.

Req: // release rate normalized to surface area of the implant lookup, key: Cc1ccccc1N1C(=O)c2cc(S(N)(=O)=O)c(Cl)cc2NC1C (centres unmarked)
Resp: 2.6

Req: Proceed to O=C1CC[C@@]2(O)[C@H]3Cc4ccc(O)c5c4[C@@]2(CCN3CC2CC2)[C@H]1O5 [Naltrexone Base]
Resp: 5.5

Req: Proceed to CCNC(=O)[C@@H]1CCCN1C(=O)[C@H](CCCNC(=N)N)NC(=O)[C@H](CC(C)C)NC(=O)[C@@H](Cc1cn(Cc2ccccc2)cn1)NC(=O)[C@H](Cc1ccc(O)cc1)NC(=O)[C@H](CO)NC(=O)[C@H](Cc1c[nH]c2ccccc12)NC(=O)[C@H](Cc1cnc[nH]1)NC(=O)[C@@H]1CCC(=O)N1 [Histrelin Acetate]
Resp: 0.2

Req: Proceed to Clc1cccc(Cl)c1N=C1NCCN1
Resp: 136

Req: Proceed to C#CCN(C)[C@H](C)Cc1ccccc1 [Selegiline HCL]
Resp: 15

---

assay: Release rates of active agents from Tecophilic, Tecoflex and Carbothane polyurethane implants (Example 6); type: physicochemical; settings: Tecophilic HP-60D-20, 15% EWC
Where a name gives a salt, the structure may show the parent alone.
measure: release rate normalized to surface area of the implant (μg/day/cm^2)
Answer format: numeric, μg/day/cm^2 implied, no suffix.

Req: // release rate normalized to surface area of the implant lookup, key: C[C@@H](O)[C@@H]1NC(=O)[C@H](CCCCN)NC(=O)[C@@H](Cc2c[nH]c3ccccc23)NC(=O)[C@H](Cc2ccccc2)NC(=O)[C@@H](NC(=O)[C@H](N)Cc2ccccc2)CSSC[C@@H](C(=O)N[C@H](CO)[C@@H](C)O)NC1=O [Octreotide Acetate]
Resp: 758

Req: Proceed to C#CCN(C)[C@H](C)Cc1ccccc1 [Selegiline HCL]
Resp: 294

Req: Proceed to Cc1ccccc1N1C(=O)c2cc(S(N)(=O)=O)c(Cl)cc2NC1C (stereo not drawn)
Resp: 50

---

assay: Release rates of active agents from Tecophilic, Tecoflex and Carbothane polyurethane implants (Example 6); assay type: physicochemical; conditions: Carbothane PC-3575A, F.M.: 620
Counter-ions that a name gives are not always drawn.
Can you tell me non-normalized release rate for the items I'm about to list?
State the result as a value with its unit after it.

Req: // non-normalized release rate lookup, key: Clc1cccc(Cl)c1N=C1NCCN1
Resp: 400 µg/day

Req: Proceed to Cc1nc2n(c(=O)c1CCN1CCC(c3noc4cc(F)ccc34)CC1)CCCC2
Resp: 40 µg/day

Req: Proceed to Cc1ccccc1N1C(=O)c2cc(S(N)(=O)=O)c(Cl)cc2NC1C (stereo not shown)
Resp: 20 µg/day

Req: Proceed to C#CCN(C)[C@H](C)Cc1ccccc1 [Selegiline HCL]
Resp: 70 µg/day

---

assay: Release rates of active agents from Tecophilic, Tecoflex and Carbothane polyurethane implants (Example 6); format: physicochemical; conditions: Tecophilic HP-60D-20, 15% EWC
Where a name gives a salt, the structure may show the parent alone.
Can you tell me non-normalized release rate for the items I'm about to list?
Answer format: numeric, µg/day implied, no suffix.

Req: // non-normalized release rate lookup, key: C#CCN(C)[C@H](C)Cc1ccccc1 [Selegiline HCL]
Resp: 600

Req: Proceed to O=C1CC[C@@]2(O)[C@H]3Cc4ccc(O)c5c4[C@@]2(CCN3CC2CC2)[C@H]1O5 [Naltrexone Base]
Resp: 1000

Req: Proceed to C[C@@H](O)[C@@H]1NC(=O)[C@H](CCCCN)NC(=O)[C@@H](Cc2c[nH]c3ccccc23)NC(=O)[C@H](Cc2ccccc2)NC(=O)[C@@H](NC(=O)[C@H](N)Cc2ccccc2)CSSC[C@@H](C(=O)N[C@H](CO)[C@@H](C)O)NC1=O [Octreotide Acetate]
Resp: 1500

Req: Proceed to CCNC(=O)[C@@H]1CCCN1C(=O)[C@H](CCCNC(=N)N)NC(=O)[C@H](CC(C)C)NC(=O)[C@@H](Cc1cn(Cc2ccccc2)cn1)NC(=O)[C@H](Cc1ccc(O)cc1)NC(=O)[C@H](CO)NC(=O)[C@H](Cc1c[nH]c2ccccc12)NC(=O)[C@H](Cc1cnc[nH]1)NC(=O)[C@@H]1CCC(=O)N1 [Histrelin Acetate]
Resp: 150

Req: Proceed to Clc1cccc(Cl)c1N=C1NCCN1
Resp: 2000

Req: Proceed to Cc1ccccc1N1C(=O)c2cc(S(N)(=O)=O)c(Cl)cc2NC1C (stereo not shown)
Resp: 124

Req: Proceed to Cc1nc2n(c(=O)c1CCN1CCC(c3noc4cc(F)ccc34)CC1)CCCC2
Resp: 150

---

assay: Release rates of active agents from Tecophilic, Tecoflex and Carbothane polyurethane implants (Example 6); format: physicochemical; details: Tecoflex EG-85A, F.M.: 2,300
Structures can show the parent of a compound that is named as a salt.
Can you tell me non-normalized release rate for the items I'm about to list?

Req: // non-normalized release rate lookup, key: C#CCN(C)[C@H](C)Cc1ccccc1 [Selegiline HCL]
Resp: 3000 µg/day

Req: Proceed to Cc1ccccc1N1C(=O)c2cc(S(N)(=O)=O)c(Cl)cc2NC1C (centres unmarked)
Resp: 77 µg/day

Req: Proceed to C[C@@H](O)[C@@H]1NC(=O)[C@H](CCCCN)NC(=O)[C@@H](Cc2c[nH]c3ccccc23)NC(=O)[C@H](Cc2ccccc2)NC(=O)[C@@H](NC(=O)[C@H](N)Cc2ccccc2)CSSC[C@@H](C(=O)N[C@H](CO)[C@@H](C)O)NC1=O [Octreotide Acetate]
Resp: 30 µg/day

Req: Proceed to Cc1nc2n(c(=O)c1CCN1CCC(c3noc4cc(F)ccc34)CC1)CCCC2
Resp: 150 µg/day

Req: Proceed to Clc1cccc(Cl)c1N=C1NCCN1
Resp: 2000 µg/day

---

assay: Release rates of active agents from Tecophilic, Tecoflex and Carbothane polyurethane implants (Example 6); format: physicochemical; conditions: Tecoflex EG 100A, F.M.: 10,000
Counter-ions that a name gives are not always drawn.
I would appreciate it if you labelled entries YES when release rate normalized to surface area of the implant is 2 μg/day/cm^2 or higher, otherwise NO.

Req: Hello, I need to know if Cc1ccccc1N1C(=O)c2cc(S(N)(=O)=O)c(Cl)cc2NC1C (centres unmarked) has measured release rate normalized to surface area of the implant not below 2 μg/day/cm^2. Thanks!
Resp: YES

Req: Proceed to C#CCN(C)[C@H](C)Cc1ccccc1 [Selegiline HCL]
Resp: YES

Req: Proceed to O=C1CC[C@@]2(O)[C@H]3Cc4ccc(O)c5c4[C@@]2(CCN3CC2CC2)[C@H]1O5 [Naltrexone Base]
Resp: YES

Req: Proceed to Clc1cccc(Cl)c1N=C1NCCN1
Resp: YES

Req: Proceed to CCNC(=O)[C@@H]1CCCN1C(=O)[C@H](CCCNC(=N)N)NC(=O)[C@H](CC(C)C)NC(=O)[C@@H](Cc1cn(Cc2ccccc2)cn1)NC(=O)[C@H](Cc1ccc(O)cc1)NC(=O)[C@H](CO)NC(=O)[C@H](Cc1c[nH]c2ccccc12)NC(=O)[C@H](Cc1cnc[nH]1)NC(=O)[C@@H]1CCC(=O)N1 [Histrelin Acetate]
Resp: NO

---

experiment: Release rates of active agents from Tecophilic, Tecoflex and Carbothane polyurethane implants (Example 6); assay type: physicochemical; conditions: Tecoflex EG-85A, F.M.: 2,300
Counter-ions that a name gives are not always drawn.
Can you tell me release rate normalized to surface area of the implant for the items I'm about to list?
Answer format: numeric, μg/day/cm^2 implied, no suffix.

Req: // release rate normalized to surface area of the implant lookup, key: Clc1cccc(Cl)c1N=C1NCCN1 [Clonidine Base]
Resp: 1053

Req: Proceed to Cc1ccccc1N1C(=O)c2cc(S(N)(=O)=O)c(Cl)cc2NC1C (stereo not shown) [Metolazone]
Resp: 32

Req: Proceed to C#CCN(C)[C@H](C)Cc1ccccc1 [Selegiline HCL]
Resp: 1518

Req: Proceed to C[C@@H](O)[C@@H]1NC(=O)[C@H](CCCCN)NC(=O)[C@@H](Cc2c[nH]c3ccccc23)NC(=O)[C@H](Cc2ccccc2)NC(=O)[C@@H](NC(=O)[C@H](N)Cc2ccccc2)CSSC[C@@H](C(=O)N[C@H](CO)[C@@H](C)O)NC1=O [Octreotide Acetate]
Resp: 16
